Molecular target: Heat shock factor protein 1 (Homo sapiens) (UniProt Q00613)
Sequence (Q00613 whole entry, looked up): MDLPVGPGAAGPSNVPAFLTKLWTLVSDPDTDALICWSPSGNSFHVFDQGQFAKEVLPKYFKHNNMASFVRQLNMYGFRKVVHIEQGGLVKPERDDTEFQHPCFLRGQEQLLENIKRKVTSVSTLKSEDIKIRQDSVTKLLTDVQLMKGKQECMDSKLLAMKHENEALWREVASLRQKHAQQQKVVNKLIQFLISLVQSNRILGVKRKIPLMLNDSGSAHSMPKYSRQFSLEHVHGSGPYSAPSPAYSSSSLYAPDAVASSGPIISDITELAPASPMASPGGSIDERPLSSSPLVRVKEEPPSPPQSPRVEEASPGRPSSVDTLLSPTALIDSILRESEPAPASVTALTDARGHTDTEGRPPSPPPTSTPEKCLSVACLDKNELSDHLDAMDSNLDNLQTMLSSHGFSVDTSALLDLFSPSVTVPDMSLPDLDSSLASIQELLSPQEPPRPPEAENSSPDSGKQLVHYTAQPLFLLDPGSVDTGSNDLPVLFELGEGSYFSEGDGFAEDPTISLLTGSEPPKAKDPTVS
Assay: ATG_HSE_CIS: Attagene CIS-FACTORIAL HepG2 Assay for human Heat Shock Transcription Factor 1 (HSE) (AID 2282953)
Settings: HepG2 HSE cis-reporter, Attagene RNA transcription; actives raise or lower the signal
Calls of active or inactive are those of the source. Rule for the calls: active = hit-call score of the fitted dose curve at least 0.9, where 1 is the maximum; inactive = score below 0.9.
Reply using exactly one outcome from T (active), F (inactive)

# Compound, Answer Label
records = [
    ("NC(C(F)(F)F)C(F)(F)F", "F"),
    ("O=P(O)(O)CCC(F)(F)C(F)(F)C(F)(F)C(F)(F)C(F)(F)C(F)(F)F", "F"),
    ("CCc1ccccc1O", "F"),
    ("N=C(N)c1ccc(OCCCCCOc2ccc(C(=N)N)cc2)cc1", "F"),
    ("CCOC(OCC)C(=O)c1ccccc1", "F"),
]

Record lookup: outcome of this test for CCOC(C)=O ?
F

Record lookup: outcome of this test for C=CC(F)(F)C(F)(F)C(F)(F)C(F)(F)F ?
F

Record lookup: outcome of this test for CC[N+](CC)(CC)Cc1ccccc1 ?
F

====

Biological target: Transcription factor Sp1 (Homo sapiens)
Assay: ATG_Sp1_CIS: Attagene CIS-FACTORIAL HepG2 Assay for human Specificity Protein 1 (Sp1) (AID 2282961)
Details: HepG2 Sp1 cis-reporter transcription, actives raise or lower the signal
Calls of active or inactive are those of the source. The calls were made as follows: active = hit-call score of the fitted dose curve at least 0.9, where 1 is the maximum; inactive = score below 0.9.
Reply using exactly one outcome from 1 (yes) (active), 0 (no) (inactive)

Worked cases, answers included:
# Compound, Answer Label
measured = [
    ("COc1ccc(C#N)cc1", "0 (no)"),
    ("O=S(=O)(O)C(F)(F)C(F)(F)C(F)(F)C(F)(F)C(F)(F)C(F)(F)C(F)(F)C(F)(F)C(F)(F)C(F)(F)F", "0 (no)"),
]

Moving on to another compound below.
Record lookup: outcome of this test for FC(F)(F)C1(F)C(F)(F)C(F)(F)C(F)(F)C1(F)F ?
0 (no)

====

Experiment: ATG_EGR_CIS: Attagene CIS-FACTORIAL HepG2 Assay for human Early Growth Response 1 (EGR1) (AID 2282938)
Conditions: HepG2 Attagene CIS-FACTORIAL EGR reporter mRNA; actives raise or lower the signal
Activity calls are given as the source filed them. The calls were made as follows: active = hit-call score of the fitted dose curve at least 0.9, where 1 is the maximum; inactive = score below 0.9.
Measurement Label: outcome

# Structure String, Measurement Label, Observed Value
rows = [
    ("CCC(=O)O", "outcome", "inactive"),
    ("Clc1ccc2c(Cl)ccnc2c1", "outcome", "inactive"),
    ("COc1cc([N+](=O)[O-])ccc1N", "outcome", "inactive"),
]

====

Assay: ATG_NF_kB_CIS: Attagene CIS-FACTORIAL HepG2 Assay for human Nuclear Factor Kappa B (NF-kB) (AID 2282991)
Conditions: HepG2 Attagene cis-factorial NF-kB reporter mRNA; actives raise or lower the signal
Activity calls are given as the source filed them. The calls were made as follows: active = hit-call score of the fitted dose curve at least 0.9, where 1 is the maximum; inactive = score below 0.9.
Reply using exactly one outcome from active, inactive

Worked cases, answers included:
# Compound, Answer Label
rows = [
    ("CCO[Si](CCC1CCC2OC2C1)(OCC)OCC (stereo not drawn)", "inactive"),
    ("FC(F)(F)C1(F)C(F)(F)C(F)(F)C(F)(F)C1(F)F", "inactive"),
    ("CCCCCCCCCCCC", "inactive"),
]

Record lookup: outcome of this test for CC1=CC(=O)c2ccccc2C1=O ?
inactive

Record lookup: outcome of this test for COCC1CCC(CO)CC1 (stereo not drawn) ?
inactive

Record lookup: outcome of this test for COC(O)c1ccccc1 (stereo not drawn) ?
inactive

Record lookup: outcome of this test for C=CCOCC(CO)(CO)CO ?
inactive

Record lookup: outcome of this test for FCOC(C(F)(F)F)C(F)(F)F ?
inactive

Record lookup: outcome of this test for CCCCCCC(C)(C)C(=O)O ?
inactive

Record lookup: outcome of this test for Clc1ccc2c(Cl)ccnc2c1 ?
inactive

Record lookup: outcome of this test for O=C(O)CCC(F)(F)C(F)(F)C(F)(F)C(F)(F)C(F)(F)C(F)(F)F ?
inactive

Record lookup: outcome of this test for O=CC(F)(F)C(F)(F)C(F)(F)F ?
inactive

Record lookup: outcome of this test for O=C1OC(=O)C(F)(F)C1(F)F ?
inactive

Record lookup: outcome of this test for Nc1cc(Cl)c(-c2cc(Cl)c(N)cc2Cl)cc1Cl ?
inactive

Record lookup: outcome of this test for CC1COCc2cc3c(cc21)C(C)(C)C(C)C3(C)C (stereo not drawn) ?
active

Record lookup: outcome of this test for O=C(CC(=O)C(F)(F)C(F)(F)C(F)(F)F)c1cccs1 ?
inactive

Record lookup: outcome of this test for CCCCCCCCCCCCCCCCCC[N+](C)(C)Cc1ccccc1 ?
inactive

Record lookup: outcome of this test for Cc1cc(C(=C2C=CC(=Nc3ccc(S(=O)(=O)O)cc3)C=C2)c2ccc(Nc3ccc(S(=O)(=O)O)cc3)cc2)cc(S(=O)(=O)O)c1N ?
inactive

Record lookup: outcome of this test for OCC(F)(F)C(F)(F)C(F)(F)C(F)(F)C(F)(F)C(F)(F)C(F)(F)C(F)(F)C(F)(F)C(F)(F)C(F)(F)F ?
inactive

Record lookup: outcome of this test for CCCCCCCC(OC)OC ?
inactive

Record lookup: outcome of this test for CC1CCC(C(=O)O)CC1 (stereo not drawn) ?
inactive

Record lookup: outcome of this test for COC(=O)C(F)(F)C(F)(F)C(F)(F)F ?
inactive

Record lookup: outcome of this test for CCCCc1ccc2ccccc2c1S(=O)(=O)O ?
inactive

====

Read-out: NAD(P)H dehydrogenase [quinone] 1 (NQO1), NQO1 (gene 1728)
Experiment: LTEA_HepaRG_NQO1: Life Technologies and Expression Analysis (LTEA) Assay for NAD(P)H dehydrogenase [quinone] 1 (NQO1) using HepaRG (AID 2283526)
Details: mRNA level, 48 h; actives raise or lower the signal
Description: LTEA_HepaRG is a cell based, multiplexed-readout assay that uses HepaRG, a human liver cell line, with measurements taken at 48 hours after chemical dosing on a 96-well plate.LTEA_HepaRG_NQO1 is one of 102 assay component(s) measured in the LTEA HepaRG cell culture assay. It is a marker of Diseases associated with NQO1 include Tardive Dyskinesia and Childhood Leukemia.Data from the assay component LTEA_HepaRG_NQO1 was analyzed into 1 endpoint. […]
Active and inactive are the calls of the source. How the source made its calls: active means hit-call score of the fitted dose curve at least 0.9, where 1 is the maximum; inactive means score below 0.9.

# Structure String, outcome
data = [
    ("CCCCCCCCCCCCCCC", "inactive"),
    ("Cc1[nH]nc2c1N=C(c1ccccc1Cl)c1cc([N+](=O)[O-])ccc1N2", "inactive"),
    ("CCCCc1oc2ccccc2c1C(=O)c1cc(I)c(OCCN(CC)CC)c(I)c1", "inactive"),
]

====

Target: Cellular tumor antigen p53 (Homo sapiens)
Test: TOX21_p53_BLA_p5_ratio: Tox21 HCT-116 p53 Agonism Beta-lactamase Assay, Ratio, Phase 5 (AID 2283599)
Records with an inconclusive call do not appear. Active and inactive are the calls of the source. How the source made its calls: active means hit-call score of the fitted dose curve at least 0.9, where 1 is the maximum; inconclusive means response in the unintended direction; inactive means score below 0.9.
Reply using exactly one outcome from y for active, n for inactive

Worked cases, answers included:
# Compound, Measurement Target, Answer Label
data = [
    ("Cc1ccc(C(=O)c2ccccc2)cc1", "Cellular tumor antigen p53 (Homo sapiens)", "n"),
    ("CC(C)(C)c1ccc(O)c(O)c1", "Cellular tumor antigen p53 (Homo sapiens)", "n"),
    ("O=C(Nc1cccc([N+](=O)[O-])c1)c1cc2ccccc2cc1O", "Cellular tumor antigen p53 (Homo sapiens)", "y"),
    ("O=C(O)C(=O)O", "Cellular tumor antigen p53 (Homo sapiens)", "n"),
    ("NNc1nc(-c2ccc([N+](=O)[O-])cc2)cs1", "Cellular tumor antigen p53 (Homo sapiens)", "y"),
]

Record lookup: outcome of this test for CC1=NN(c2ccccc2)C(=O)C1 ?
n

Record lookup: outcome of this test for O=C(NO)c1ccccc1 ?
n

Record lookup: outcome of this test for C=CC(=O)OCC(CO)(COCC(COC(=O)C=C)(COC(=O)C=C)COC(=O)C=C)COC(=O)C=C ?
y

Record lookup: outcome of this test for NCCN ?
n

Record lookup: outcome of this test for CC(C)(C)C1CCCCC1O (stereo unspecified) ?
n

Record lookup: outcome of this test for CCC(=O)O ?
n

====

Test: CCTE_Mundy_HCI_iCellGluta_NOG_NeuriteCount: CCTE's Neurite Outgrowth Assay in iCellGluta cells for Neurite Count, Mundy Lab (AID 2284342);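 note: chemical exposure about 48 hours starting 2 hours after plating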
Records with an inconclusive call do not appear. The source made the active and inactive calls. Rule for the calls: active = hit-call score of the fitted dose curve at least 0.9, where 1 is the maximum; inconclusive = response in the unintended direction; inactive = score below 0.9.
Reply using exactly one outcome from YES (active), NO (inactive)

# Structure String, Answer Label
data = [
    ("OCC(F)(F)C(F)(F)C(F)(F)C(F)(F)C(F)(F)C(F)(F)C(F)(F)C(F)(F)C(F)(F)C(F)(F)C(F)(F)F", "NO"),
    ("O=P(O)(O)CCC(F)(F)C(F)(F)C(F)(F)C(F)(F)C(F)(F)C(F)(F)C(F)(F)C(F)(F)F", "NO"),
    ("O=P(O)(O)CCC(F)(F)C(F)(F)C(F)(F)C(F)(F)C(F)(F)C(F)(F)F", "NO"),
]

Moving on to another compound below.
Record lookup: outcome of this test for CC(C)c1c(C(=O)Nc2ccccc2)c(-c2ccccc2)c(-c2ccc(F)cc2)n1CC[C@@H](O)C[C@@H](O)CC(=O)O ?
YES

Each recorded value in this set is attributed to PubChem BioAssay (EPA / NIEHS).
